tested on: rice; assay: Test B flooded paddy test; type: in vivo, Oryza sativa; details: 250 g ai/ha, Flood, 13 days, 0 to 100 scale (0 no effect, 100 complete control)
parameter-measured: Plant response rating, Rice

[[record]]
compound = "CCc1ncn(-c2cccc(C(=O)N3C[C@H](C)Oc4c(Cl)cccc43)c2)n1"
parameter_measured = "Plant response rating, Rice"
endpoint_result = 0

[[record]]
compound = "CCc1ccc(-n2cnc(C3CCC3)n2)cc1C(=O)N1C[C@H](C)Oc2c(Cl)cccc21"
parameter_measured = "Plant response rating, Rice"
endpoint_result = 20

[[record]]
compound = "Cc1cccc2c1O[C@@H](C)CN2C(=O)c1cccc(-n2cnc(C(C)(C)C)n2)c1"
parameter_measured = "Plant response rating, Rice"
endpoint_result = 0

[[record]]
compound = "Cc1cccc2c1O[C@@H](C)CN2C(=O)c1cccc(-n2ncnc2C(C)C)c1"
parameter_measured = "Plant response rating, Rice"
endpoint_result = 0

[[record]]
compound = "CCc1ncn(-c2ccc(C)c(C(=O)N3C[C@H](C)Oc4c(C)cccc43)c2)n1"
parameter_measured = "Plant response rating, Rice"
endpoint_result = 30

[[record]]
compound = "CCC1CN(C(=O)c2cncc(-n3cncn3)c2)c2cccc(Cl)c2O1 (racemic)"
parameter_measured = "Plant response rating, Rice"
endpoint_result = 0

[[record]]
compound = "CC(C)c1ncn(-c2ccc(OC(F)F)c(C(=O)N3C[C@H](C)Oc4c(Cl)cccc43)c2)n1"
parameter_measured = "Plant response rating, Rice"
endpoint_result = 0

[[record]]
compound = "Cc1ccc(-n2cnc(C(C)(C)C)n2)cc1C(=O)N1C[C@H](C)Oc2c(C)cccc21"
parameter_measured = "Plant response rating, Rice"
endpoint_result = 0

[[record]]
compound = "Cc1cccc2c1OC(C(F)(F)F)CN2C(=O)c1ccnc(-n2cncn2)c1 (centres unmarked)"
parameter_measured = "Plant response rating, Rice"
endpoint_result = 0

[[record]]
compound = "CCc1ccc(-n2cncn2)cc1C(=O)N1C[C@H](C)Oc2c(Cl)cccc21"
parameter_measured = "Plant response rating, Rice"
endpoint_result = 0

[[record]]
compound = "CCc1ccc(-n2cnc(C(C)(C)C)n2)cc1C(=O)N1C[C@H](C)Oc2c(Cl)cccc21"
parameter_measured = "Plant response rating, Rice"
endpoint_result = 10

[[record]]
compound = "CC(C)c1ncn(-c2cccc(C(=O)N3C[C@H](C)Oc4c(Cl)cccc43)c2)n1"
parameter_measured = "Plant response rating, Rice"
endpoint_result = 0

[[record]]
compound = "CC1CN(C(=O)c2cccc(-n3cncn3)c2)c2cc(F)cc(F)c2O1 (centres unmarked)"
parameter_measured = "Plant response rating, Rice"
endpoint_result = 0

[[record]]
compound = "CC(C)c1ncn(-c2cc(C(=O)N3C[C@H](C)Oc4c(Cl)cccc43)c3ccccc3c2)n1"
parameter_measured = "Plant response rating, Rice"
endpoint_result = 0


---

This section presents molecules with their documented Plant response rating, Wheat values.
system: wheat; assay: Test C preemergence; type: in vivo, Triticum aestivum; conditions: Preemergence, 125 g ai/ha; 0 to 100 scale, 0 no effect, 100 complete control
parameter-measured: Plant response rating, Wheat

[[record]]
molecule = "CCOC(=O)c1ncn(-c2ccc(C)c(C(=O)N3C[C@H](C)Oc4c(Cl)cccc43)c2)n1"
parameter_measured = "Plant response rating, Wheat"
endpoint_result = 0

[[record]]
molecule = "C[C@H]1CN(C(=O)c2cccc(-n3cnc(OS(C)(=O)=O)n3)c2)c2cccc(Cl)c2O1"
parameter_measured = "Plant response rating, Wheat"
endpoint_result = 0

[[record]]
molecule = "Cc1ccc(-n2cnc(C(C)C)n2)cc1C(=O)N1CC(C(F)(F)F)Oc2c(Cl)cccc21 (stereo not shown)"
parameter_measured = "Plant response rating, Wheat"
endpoint_result = 30

[[record]]
molecule = "Cc1ccc(-n2cnc(C(C)O)n2)cc1C(=O)N1CC(C)Oc2c(Cl)cccc21 (mixture of isomers)"
parameter_measured = "Plant response rating, Wheat"
endpoint_result = 50

[[record]]
molecule = "COCc1ncn(-c2ccc(C)c(C(=O)N3C[C@H](C)Oc4c(Cl)cccc43)c2)n1"
parameter_measured = "Plant response rating, Wheat"
endpoint_result = 0

[[record]]
molecule = "CCOCC1CN(C(=O)c2cc(-n3cnc(C4CCC4)n3)ccc2OC)c2cccc(Cl)c2O1 (stereo not shown)"
parameter_measured = "Plant response rating, Wheat"
endpoint_result = 0

[[record]]
molecule = "CCOC[C@H]1CN(C(=O)c2cc(-n3cnc(C(C)C)n3)ccc2OC)c2cccc(Cl)c2O1"
parameter_measured = "Plant response rating, Wheat"
endpoint_result = 30


---

test system: kochia; experiment: Test C postemergence; assay type: in vivo, Bassia scoparia; conditions: Postemergence, 1000 g ai/ha, 10 days, visual 0 to 100 scale (0 no effect, 100 complete control)
This section presents molecules with their documented Plant response rating, Kochia values.
parameter-measured: Plant response rating, Kochia

[[record]]
molecule = "Cc1cccc2c1O[C@@H](C)CN2C(=O)c1cccc(-n2cncc2Br)c1"
parameter_measured = "Plant response rating, Kochia"
endpoint_result = 30

[[record]]
molecule = "Cc1cccc2c1O[C@@H](C)CN2C(=O)c1cccc(-n2cncc2C#N)c1"
parameter_measured = "Plant response rating, Kochia"
endpoint_result = 40

[[record]]
molecule = "C[C@H]1CN(C(=O)c2cccc(-c3cncc(Cl)c3)c2)c2cccc(Cl)c2O1"
parameter_measured = "Plant response rating, Kochia"
endpoint_result = 50

[[record]]
molecule = "COc1ccc(-c2cccc(C(=O)N3C[C@H](C)Oc4c(Cl)cccc43)c2)cn1"
parameter_measured = "Plant response rating, Kochia"
endpoint_result = 70

[[record]]
molecule = "C[C@H]1CN(C(=O)c2cccc(-c3ccncn3)c2)c2cccc(Cl)c2O1"
parameter_measured = "Plant response rating, Kochia"
endpoint_result = 10


---

This section presents molecules with their documented Plant response rating, Wheat values.
system: wheat; assay: Test C postemergence; assay type: in vivo, Triticum aestivum; settings: Postemergence, 500 g ai/ha, 10 days, visual 0 to 100 scale (0 no effect, 100 complete control)
parameter-measured: Plant response rating, Wheat

[[record]]
molecule = "CC(C)c1ncn(-c2cc(OC(F)F)c(OC(F)F)c(C(=O)N3C[C@H](C)Oc4c(Cl)cccc43)c2)n1"
system_tested = "wheat"
endpoint_result = 0

[[record]]
molecule = "CCc1c(F)cc(-n2cnc(C(C)C)n2)cc1C(=O)N1C[C@H](C)Oc2c(Cl)cccc21"
system_tested = "wheat"
endpoint_result = 20

[[record]]
molecule = "CCn1cnc(-c2cccc(C(=O)N3C[C@H](C)Oc4c(C)cccc43)c2)n1"
system_tested = "wheat"
endpoint_result = 0

[[record]]
molecule = "COC[C@H]1CN(C(=O)c2cc(-n3cncn3)ccc2C)c2cccc(Cl)c2O1"
system_tested = "wheat"
endpoint_result = 80

[[record]]
molecule = "Cc1cn(-c2cccc(C(=O)N3C[C@H](C)Oc4c(C)cccc43)c2)cn1"
system_tested = "wheat"
endpoint_result = 10

[[record]]
molecule = "CC(C)c1ncn(-c2ccc(SC(F)(F)F)c(C(=O)N3C[C@H](C)Oc4c(Cl)cccc43)c2)n1"
system_tested = "wheat"
endpoint_result = 10

[[record]]
molecule = "CC(C)c1ncn(-c2ccc(S(=O)(=O)C(F)(F)F)c(C(=O)N3C[C@H](C)Oc4c(Cl)cccc43)c2)n1"
system_tested = "wheat"
endpoint_result = 0


---

system: rice; assay: Test D flooded paddy test; assay type: in vivo, Oryza sativa; settings: 250 g ai/ha, applied to paddy water, visual rating after 13 to 14 days, scale 0 to 100 (0 no effect, 100 complete control)
This section presents compounds with their documented Plant response rating, Rice (Flood) values.
parameter-measured: Plant response rating, Rice (Flood)

[[record]]
compound = "CC(C)c1ncn(-c2cc3c(c(C(=O)N4C[C@H](C)Oc5c(Cl)cccc54)c2)OCCO3)n1"
system_tested = "rice"
endpoint_result = 20

[[record]]
compound = "COc1cc(-n2cnc(C(C)C)n2)cc(C(=O)N2C[C@H](C)Oc3c(Cl)cccc32)c1OC"
system_tested = "rice"
endpoint_result = 0

[[record]]
compound = "CCOC[C@H]1CN(C(=O)c2cc(-n3cnc(C(C)(C)C)n3)ccc2C)c2cccc(Cl)c2O1"
system_tested = "rice"
endpoint_result = 10

[[record]]
compound = "CC(C)(C)c1ncn(-c2cccc(C(=O)N3CC(C(F)(F)F)Oc4c(Cl)cccc43)c2)n1 (stereo not shown)"
system_tested = "rice"
endpoint_result = 0

[[record]]
compound = "COc1ccc(-n2cnc(C(C)(C)O)n2)cc1C(=O)N1C[C@H](C)Oc2c(C)cccc21"
system_tested = "rice"
endpoint_result = 20

[[record]]
compound = "COCc1ncn(-c2ccc(C)c(C(=O)N3C[C@H](C)Oc4c(Cl)cccc43)c2)n1"
system_tested = "rice"
endpoint_result = 0

[[record]]
compound = "Cc1ccc(-n2cnc(C3(C#N)CC3)n2)cc1C(=O)N1C[C@H](C)Oc2c(Cl)cccc21"
system_tested = "rice"
endpoint_result = 15

[[record]]
compound = "CC(C)c1ncn(-c2ccc([S+](C)[O-])c(C(=O)N3C[C@H](C)Oc4c(Cl)cccc43)c2)n1 (stereo partly shown)"
system_tested = "rice"
endpoint_result = 0

[[record]]
compound = "COC[C@H]1CN(C(=O)c2cc(-n3cnc(C4CCC4)n3)ccc2C)c2cccc(Cl)c2O1"
system_tested = "rice"
endpoint_result = 25

[[record]]
compound = "Cc1ccc(-n2cnc(C3(C(F)(F)F)CC3)n2)cc1C(=O)N1C[C@H](C)Oc2c(Cl)cccc21"
system_tested = "rice"
endpoint_result = 0

[[record]]
compound = "CC(C)(C)c1ncn(-c2cc(C(=O)N3CC(C(F)(F)F)Oc4c(Cl)cccc43)ccn2)n1 (stereo not shown)"
system_tested = "rice"
endpoint_result = 0

[[record]]
compound = "CSCc1ncn(-c2ccc(C)c(C(=O)N3C[C@H](C)Oc4c(Cl)cccc43)c2)n1"
system_tested = "rice"
endpoint_result = 15

[[record]]
compound = "CCOCC1CN(C(=O)c2cc(-n3cnc(C4CCC4)n3)ccc2OC)c2cccc(Cl)c2O1 (stereo not shown)"
system_tested = "rice"
endpoint_result = 0

[[record]]
compound = "CCc1ncn(-c2cc(C(=O)N3CC(C(F)(F)F)Oc4c(C)cccc43)ccn2)n1 (stereo not shown)"
system_tested = "rice"
endpoint_result = 15

[[record]]
compound = "Cc1cc(-n2cnc(C(C)C)n2)cc(C(=O)N2C[C@H](C)Oc3c(Cl)cccc32)c1Cl"
system_tested = "rice"
endpoint_result = 0

[[record]]
compound = "Cc1ncn(-c2cc(C(=O)N3CC(C(F)(F)F)Oc4c(Cl)cccc43)ccn2)n1 (stereo not shown)"
system_tested = "rice"
endpoint_result = 0

